Listing of recorded melting point by entry.

Reference set, count: 2
{"columns": ["MOLECULE", "RESULT TYPE", "RECORDED RESULT"],
 "data": [
  ["CON(C(=O)c1cn(C)nc1C(F)F)C(C)C1CC1c1ccc(Cl)cc1Cl (stereo not given)", "melting point", "133 to 135 °C"],
  ["CCCCCCOc1cc(C)ccc1C(=O)c1cccc(C(=O)O)c1", "melting point", "118 °C"]
]}

Fill blank: measured melting point of the molecule `CCC(CC)Nc1cc(C)nc(Oc2c(C)cc(C)cc2C)c1N` is ____.
105 to 107 °C

Next molecule: `CCOC(=O)c1cnc2n(c1=O)-c1ccccc1N(C(=O)OCC)C2`
140 to 142 °C

Next molecule: `CN1CCN(c2cc(=O)c3ccc4ccccc4c3o2)CC1`
184 to 185 °C

Next molecule: `COCC(C)(C)c1cc(N)no1`
96 to 99 °C

Next molecule: CC(C)(C)OC(=O)C(Nc1ccccc1)c1ccc(Cl)c(Cl)c1 (racemic)
94 °C

Next molecule: `Cc1ccc(-c2[nH]c(=O)n(C3CCN(Cc4ccccc4C)CC3)c2C)cc1`
262 °C

Next molecule: `Cc1c(CNCCc2cc3cccc(F)c3n2C)ncn1S(=O)(=O)N(C)C`
114 to 116 °C

Next molecule: COC1CCC2(C)C(=CC(=O)C3C2CCC2(C)C(OC(C)=O)CCC32)C1 (stereo not given)
168 to 170 °C
